Here, each record is paired with measured IC50 data.
Test system: HEK293
experimentDescription: Cytotoxicity against HEK293 cells expressing pcDNA3.1 after 72 hrs by MTT assay
Assay type: cell-based
reportedConditions: Homo sapiens, HEK293, 72 h
Just the number please, in µM, no unit attached.

Some molecules with recorded IC50:
[[record]]
smilesrepresentation = "COc1ccc(/C=C/c2cc(C)n[nH]2)cc1"
endpointname = "IC50"
observedmeasurement = 12.9

[[record]]
smilesrepresentation = "Cc1cc(/C=C/c2ccc(O)c(O)c2)[nH]n1"
endpointname = "IC50"
observedmeasurement = 29.7

[[record]]
smilesrepresentation = "COc1cc(/C=C/C(=O)CC(C)=O)ccc1O"
endpointname = "IC50"
observedmeasurement = 15.8

[[record]]
smilesrepresentation = "COc1ccc(/C=C/C(=O)CC(C)=O)cc1OC"
endpointname = "IC50"
observedmeasurement = 8.2

[[record]]
smilesrepresentation = "COc1ccc(/C=C/C(=O)CC(C)=O)cc1"
endpointname = "IC50"
observedmeasurement = 18.7

[[record]]
smilesrepresentation = "Cc1cc(/C=C/c2ccc(O)cc2)[nH]n1"
endpointname = "IC50"
observedmeasurement = 77.4

[[record]]
smilesrepresentation = "COc1ccc(/C=C/c2cc(C)no2)cc1OC"
endpointname = "IC50"
observedmeasurement = 63.2

[[record]]
smilesrepresentation = "COc1cc(/C=C/c2cc(C)no2)ccc1O"
endpointname = "IC50"
observedmeasurement = 36.2


Let us examine a further case.
*Q* Which value of IC50 has been reported for Cc1cc(/C=C/c2ccc(O)c(O)c2)on1 in the records?
*A* 13

###

System: HEK293
experimentDescription: Cytotoxicity against HEK293 cells expressing pcDNA3.1 at 100 uM after 72 hrs by MTT assay
Assay type: cell-based
reportedConditions: human, hek293, 72 h
endpointName: Activity

[[record]]
smilesrepresentation = "COc1cc(CCc2cc(C)no2)ccc1O"
endpointname = "Activity"
observedmeasurement = "Non-toxic"

[[record]]
smilesrepresentation = "COc1cc(CCc2cc(C)n[nH]2)ccc1O"
endpointname = "Activity"
observedmeasurement = "Non-toxic"

[[record]]
smilesrepresentation = "CC(=O)CC(=O)CCc1ccc(O)cc1"
endpointname = "Activity"
observedmeasurement = "Non-toxic"

[[record]]
smilesrepresentation = "COc1ccc(CCc2cc(C)no2)cc1OC"
endpointname = "Activity"
observedmeasurement = "Non-toxic"

[[record]]
smilesrepresentation = "COc1ccc(CCc2cc(C)n[nH]2)cc1"
endpointname = "Activity"
observedmeasurement = "Non-toxic"

[[record]]
smilesrepresentation = "COc1ccc(CCc2cc(C)n[nH]2)cc1OC"
endpointname = "Activity"
observedmeasurement = "Non-toxic"


*Q* Give the reported Activity for COc1ccc(CCC(=O)CC(C)=O)cc1OC (system: HEK293).
*A* Non-toxic

*Q* Give the reported Activity for Cc1cc(CCc2ccc(O)cc2)on1 (system: HEK293).
*A* Non-toxic

###

Here, each record is paired with measured pIC50 data.
System: HEK293
experimentDescription: Cytotoxicity against HEK293 cells expressing pcDNA3.1 after 72 hrs by MTT assay
Type: cell-based
reportedConditions: Homo sapiens, HEK293, 72 h
// returns pIC50 (minus log10 of molar concentration), number only

Some molecules with recorded pIC50:
[[record]]
molecule = "CC(=O)O[C@H]1C(=O)[C@@]2(C)[C@H]([C@H](OC(=O)c3ccccc3)[C@]3(O)C[C@H](OC(=O)[C@H](O)[C@@H](NC(=O)c4ccccc4)c4ccccc4)C(C)=C1C3(C)C)[C@]1(OC(C)=O)CO[C@@H]1C[C@@H]2O [PACLITAXEL]"
observedmeasurement = 7.40

[[record]]
molecule = "COc1ccc(/C=C/c2cc(C)no2)cc1"
observedmeasurement = 4.23

[[record]]
molecule = "CC(=O)/C=C(O)/C=C/c1ccc(O)c(O)c1 [HISPOLON]"
observedmeasurement = 5.14


*Q* Which value of pIC50 has been reported for COc1cc(/C=C/c2cc(C)[nH]n2)ccc1O in the records?
*A* 4.32

###

Test system: HEK293
experimentDescription: Cytotoxicity against HEK293 cells expressing pcDNA3.1 at 100 uM after 72 hrs by MTT assay
Assay type: cell-based
reportedConditions: human, hek293, 72 h
endpointName: Activity

[[record]]
smilesrepresentation = "COc1ccc(CCc2cc(C)no2)cc1"
endpointname = "Activity"
observedmeasurement = "Non-toxic"

[[record]]
smilesrepresentation = "Cc1cc(CCc2ccc(O)cc2)[nH]n1"
endpointname = "Activity"
observedmeasurement = "Non-toxic"

[[record]]
smilesrepresentation = "COc1ccc(CCC(=O)CC(C)=O)cc1"
endpointname = "Activity"
observedmeasurement = "Non-toxic"

